- system under test: T1, Mouse Fc-human GDF15 (Mu IgG1Fc_Fxa_Hu GDF15) (human)
- T1 construct: Whole entry is the fusion: mouse IgG1 Fc, FXa site and linker, mature human GDF15; described as dimeric; also called Murine dimeric IgG1 Fc-human GDF-15 with FXa cleavage site; control human GDF15
- T1 chain: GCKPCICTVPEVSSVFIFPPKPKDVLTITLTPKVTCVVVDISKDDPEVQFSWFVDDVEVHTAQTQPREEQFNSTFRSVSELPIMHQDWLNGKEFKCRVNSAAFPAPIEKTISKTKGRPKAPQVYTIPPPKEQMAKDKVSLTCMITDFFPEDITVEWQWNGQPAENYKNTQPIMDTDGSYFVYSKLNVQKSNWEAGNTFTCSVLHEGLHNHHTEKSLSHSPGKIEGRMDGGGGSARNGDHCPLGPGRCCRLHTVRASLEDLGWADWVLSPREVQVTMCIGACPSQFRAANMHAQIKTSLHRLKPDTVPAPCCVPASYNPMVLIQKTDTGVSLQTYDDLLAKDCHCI
- assay method text: SPR BIAcore T200; summary sentence for the clones of Table 6
Give Kd for every item shown.

binder	Kd
GDF15_022 (antibody, human IgG1, kappa, V domains shown, Tested in bivalent format) VH: QVQLVQSGAEVKKPGSSVKVSCKASGYTFSDYNIDWVRQAPGQGLEWMGQINPNNGLIFFNQKFQGRVTITADESTSTAYMELSSLRSEDTAVYYCAREVITTVGAMDYWGQGTLVTVSS VL: EIVLTQSPATLSLSPGERATLSCRTSQSVHSYLAWYQQKPGQAPRLLIYDAKTRADGIPARFSGSGSGTDFTLTISSLEPEDFAVYYCQQFSSDPYTFGQGTKVEIKR	< 0.15 nM
GDF15_021 (antibody, human IgG1, kappa, V domains shown, Tested in bivalent format) VH: QVQLVQSGAEVKKPGSSVKVSCKASGYTFSSYNIDWVRQAPGQGLEWMGGINPINGLIFFNQKFQGRVTITADESTSTAYMELSSLRSEDTAVYYCAREAITTVGAMDHWGQGTLVTVSS VL: EIVLTQSPATLSLSPGERATLSCRTSENVHSYLAWYQQKPGQAPRLLIYDASNLADGIPARFSGSGSGTDFTLTISSLEPEDFAVYYCQQFWSDPYTFGQGTKVEIKR	< 0.15 nM

Please give the documented Kd of GDF15_0470 (antibody, human IgG1, kappa, V domains shown, Tested in bivalent format; also called GDF15-470) VH: QVQLVQSGAEVKKPGASVKVSCKASGYPFEGWYIHWVRQAPGQGLEWMGWNNPRTGLTNHAQKFQGRVTMTRDTSISTAYMELSRLRSDDTAVYYCARGVGADAAFDIWGQGTMVTVSS VL: EIVLTQSPATLSLSPGERATLSCRSSQSLLWKHGYNYLDWYQQKPGQAPRLLIYLDRNRAHGIPARFSGSGSGTDFTLTISSLEPEDFAVYYCMQSFETPITFGQGTKVEIKR
< 0.15 nM
